The compounds listed here are annotated with their Bioactive molecule content, digested sample, gastric.
Experiment: Abiotic in vitro digestion (salivary, gastric, duodenal steps) of affron® tablets, HPLC-PAD/MS quantification
Format: in vitro ADME
Conditions: after gastric step, 90 min, pH 2, 37°C, pepsin; mean ± SD
Procedure: Briefly, the salivary step runs for 5 min at pH 6.9 and 37°C, under aerobic conditions with 3.9 units α-[…]. Then, the samples were transferred for 90 min to the gastric step at pH 2 and 37°C with 71.2 units pepsin/ml under anaerobic conditions. Finally, the duodenal step was set for 150 min at pH 7 and 37°C, with 9.2 mg pancreatin/ml and 55.2 mg bile extract/ml under anaerobic conditions. […] All samples were analysed at least in duplicate. […]
Marks after values point to notes of the source that are not given here.

Use these answered entries as a reference point.
[[record]]
compound = "CC1=C(C=O)C(C)(C)CC=C1"
observed_value = "0.21 ± 0.01^c %, dry basis"

[[record]]
compound = "CC(/C=C/C=C(\\C)C(=O)O[C@@H]1O[C@H](CO[C@@H]2O[C@H](CO)[C@@H](O)[C@H](O)[C@H]2O)[C@@H](O)[C@H](O)[C@H]1O)=C\\C=C\\C=C(C)\\C=C\\C=C(/C)C(=O)O[C@@H]1O[C@H](CO[C@@H]2O[C@H](CO)[C@@H](O)[C@H](O)[C@H]2O)[C@@H](O)[C@H](O)[C@H]1O (relative stereo) [t-crocin-4, trans-crocin-4]"
observed_value = "0.26 ± 0.03^a %, dry basis"

[[record]]
compound = "CC(/C=C/C=C(\\C)C(=O)O)=C\\C=C\\C=C(C)\\C=C\\C=C(/C)C(=O)O"
observed_value = "0.03 ± 0.01^a %, dry basis"


# next compound below
Item under review: CC1=C(C=O)C(C)(C)CC(O[C@@H]2O[C@H](CO)[C@@H](O)[C@H](O)[C@H]2O)C1 (stereo partly shown) . Reported Bioactive molecule content, digested sample, gastric?
2.07 ± 0.02^a %, dry basis

* * *

Readings of Bioactive molecule content, digested sample, duodenal for the listed compounds
Experiment: Abiotic in vitro digestion (salivary, gastric, duodenal steps) of affron® tablets, HPLC-PAD/MS quantification
Format: in vitro ADME
Conditions: after duodenal step, 150 min, pH 7, 37°C, pancreatin and bile extract; mean ± SD
Procedure: Briefly, the salivary step runs for 5 min at pH 6.9 and 37°C, under aerobic conditions with 3.9 units α-[…]. Then, the samples were transferred for 90 min to the gastric step at pH 2 and 37°C with 71.2 units pepsin/ml under anaerobic conditions. Finally, the duodenal step was set for 150 min at pH 7 and 37°C, with 9.2 mg pancreatin/ml and 55.2 mg bile extract/ml under anaerobic conditions. […] All samples were analysed at least in duplicate. […]
Marks after values point to notes of the source that are not given here.

Look over these answered cases.
[[record]]
compound = "CC(/C=C/C=C(\\C)C(=O)O)=C\\C=C\\C=C(C)\\C=C\\C=C(/C)C(=O)O [Crocetin]"
observed_value = "0.02 ± 0.01^a %, dry basis"

[[record]]
compound = "CC1=C(C=O)C(C)(C)CC=C1 [Safranal]"
observed_value = "0.08 ± 0.01^b %, dry basis"

[[record]]
compound = "CC1=C(C=O)C(C)(C)CC(O[C@@H]2O[C@H](CO)[C@@H](O)[C@H](O)[C@H]2O)C1 (stereo partly shown) [Picrocrocin]"
observed_value = "2.61 ± 0.05^b %, dry basis"


Proceeding to the next compound to report its Bioactive molecule content, digested sample, duodenal.
Record request: Bioactive molecule content, digested sample, duodenal value, item CC(/C=C/C=C(\C)C(=O)O[C@@H]1O[C@H](CO[C@@H]2O[C@H](CO)[C@@H](O)[C@H](O)[C@H]2O)[C@@H](O)[C@H](O)[C@H]1O)=C\C=C\C=C(C)\C=C\C=C(/C)C(=O)O[C@@H]1O[C@H](CO[C@@H]2O[C@H](CO)[C@@H](O)[C@H](O)[C@H]2O)[C@@H](O)[C@H](O)[C@H]1O (relative stereo) [t-crocin-4, trans-crocin-4]
0.20 ± 0.04^a %, dry basis
